EXPERIMENTAL_TARGET: human BACE1 ECD; also: test concentration or dose not given here
Sequence (single chain, as listed by the source limits assumed): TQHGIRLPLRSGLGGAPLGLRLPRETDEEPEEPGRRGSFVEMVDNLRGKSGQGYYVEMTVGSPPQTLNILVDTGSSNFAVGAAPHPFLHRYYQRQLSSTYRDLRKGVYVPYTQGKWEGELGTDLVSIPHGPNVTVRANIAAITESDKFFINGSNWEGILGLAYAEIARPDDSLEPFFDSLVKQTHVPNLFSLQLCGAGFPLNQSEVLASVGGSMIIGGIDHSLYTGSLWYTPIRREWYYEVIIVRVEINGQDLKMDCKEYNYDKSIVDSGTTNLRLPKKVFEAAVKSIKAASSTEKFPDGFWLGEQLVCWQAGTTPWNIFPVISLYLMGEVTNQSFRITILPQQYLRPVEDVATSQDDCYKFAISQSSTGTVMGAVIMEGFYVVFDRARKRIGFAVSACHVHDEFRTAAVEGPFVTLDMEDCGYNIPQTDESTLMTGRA
TEST_METHOD_NOTES: cell-based or functional assay
MEASURED_QUANTITY: % inhibition of BACE1 activity, short FRET substrate (%)
Write the answer as a number in %, unit excluded.

Here's what some known entries look like.
5875 (antibody, V domains shown, anti-BACE1 IgG) VH: EVQLLESGGGLVQPGGSLRLSCAASGFTFSTYAMGWVRQAPGKGLEWVSATSGSGGSTYYADSVKGRFTISRDNSKNTLYLQMNSLRAEDTAVYYCAKGGSQWLYAPGSWFDPWGQGTLVTVSS VL: EIVLTQSPATLSLSPGERATLSCRASQSVSSYLAWYQQKPGQAPRLLIYDASNRATGIPARFSGSGSGTDFTLTISSLEPEDFAVYYCVQRSNFPWTFGGGTKVEIK; 51
5883 (antibody, V domains shown, anti-BACE1 IgG) VH: QVQLVQSGAEVKKPGSSVKVSCKASGGTFSSYAISWVRQAPGQGLEWMGGIIPIGGGANYAQKFQGRVTITADESTSTAYMELSSLRSEDTAVYYCARSGGTKYGMLDVWGQGTMVTVSS VL: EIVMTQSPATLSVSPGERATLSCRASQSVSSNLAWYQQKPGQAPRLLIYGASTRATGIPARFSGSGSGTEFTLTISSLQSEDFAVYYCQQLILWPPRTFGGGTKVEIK; -129
5874 (antibody, V domains shown, anti-BACE1 IgG) VH: EVQLLESGGGLVQPGGSLRLSCAASGFTFGSYAMSWVRQAPGKGLEWVSATSGSGGSTYYADSVKGRFTISRDNSKNTLYLQMDSLRAEDTAVYYCAKGGSQWLYAPGSWFDPWGQGTLVTVSS VL: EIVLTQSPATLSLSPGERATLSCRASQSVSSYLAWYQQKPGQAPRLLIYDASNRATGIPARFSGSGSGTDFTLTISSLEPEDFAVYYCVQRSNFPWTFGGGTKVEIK; 37
5571 (antibody, V domains shown, anti-BACE1 IgG) VH: QVQLVQSGAEVKKPGSSVKVSCKASGGTFSSYAISWVRQAPGQGLEWMGNIIPIFGTANYAQKFQGRVTITADESTSTAYMELSSLRSEDTAVYYCARSGGTKYGMLDVWGQGTVVTVSS VL: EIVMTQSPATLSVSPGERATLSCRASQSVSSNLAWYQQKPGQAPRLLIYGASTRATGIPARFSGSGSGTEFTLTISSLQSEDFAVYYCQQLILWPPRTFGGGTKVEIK; -89

Pending binder:
Answer with the recorded % inhibition of BACE1 activity, short FRET substrate of 5896 (antibody, V domains shown, anti-BACE1 IgG) VH: QLQLQESGPGLVKPSETLSLTCTVSGGSISSSSYYWGWIRQPPGKGLEWIGSIYRSGSTYYNPSLKSRVTISVDTSKNQFSLKLSSVTAADTAVYYCARVGHGISYFDLWGRGTLVTVSS VL: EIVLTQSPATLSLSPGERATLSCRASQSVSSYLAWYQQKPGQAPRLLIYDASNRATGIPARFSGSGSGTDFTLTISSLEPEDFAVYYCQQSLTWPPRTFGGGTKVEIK only.
-4
